The entries below come with measured IC50 values attached.
- SUBJECT OF TEST: UniProt P34995
- EXPERIMENTAL PROTOCOL: Binding assay for the human prostanoid EP1 receptor (competition with [3H]-PGE2)
- Parameters: expressed in transfected cells; host or cells: CHO-K1 cells, membrane fraction
- EXPERIMENTAL CONDITIONS: [3H]-PGE2 competition; averages of a number of experiments; read-out: pIC50 value, binding assay for the human prostanoid EP1 receptor (converted)

# annotated cases, reported IC50 shown
O=C(O)c1csc(Cc2cc(C(F)(F)F)ccc2OCc2ccc(F)cc2)n1    ≤ 1000 nM
O=C(O)c1csc(Cc2cc(Br)ccc2OCc2ccccc2)n1    ≤ 31.6 nM
NC(=O)c1nc(Cc2cc(Cl)ccc2OCc2c(F)cc(F)cc2F)cs1    ≤ 1000 nM
O=C(O)Cc1csc(-c2cc(Cl)ccc2OCc2ccc(F)cc2F)n1    ≤ 1000 nM
O=C(O)c1csc(Cc2cc(Cl)ccc2OCc2ccc(Cl)cc2)n1    ≤ 31.6 nM
CC(C)(C)OC(=O)Nc1coc(Cc2cc(Cl)ccc2OCc2ccccc2)n1    > 1000 nM

Could you now look at the following compound, please?
Value of IC50 reported for the compound Clc1ccc(OCc2ccccc2)c(Cc2nc(-c3nc4ncc(Br)cc4[nH]3)cs2)c1 is ≤ 1000 nM

---

- SUBJECT OF TEST: EP1 receptors (Homo sapiens, UniProt P34995)
- EXPERIMENTAL PROTOCOL: human EP1 calcium mobilisation assay (CHO-K1 cells, FLIPR, PGE2)
- Type: cell-based
- Set-up: expressed in transfected cells; host or cells: CHO-K1 cells, pCIN vector
- EXPERIMENTAL CONDITIONS: free bases or sodium salts; averages of a number of experiments; read-out: functional pKi value, human EP1 calcium mobilisation assay (converted)
Where a name gives a salt, the structure may show the parent alone.
METRIC NAME: Ki

Worked examples, 6 compounds total:
CC(C)COc1ccc(Cl)cc1Cc1nc(-c2nc3ccc(N4CCN(C)CC4)nc3[nH]2)cs1    < 1000 nM
CN1CCN(CCc2ccc3nc(-c4csc(Cc5cc(Cl)ccc5OCc5ccccc5)n4)[nH]c3c2)CC1    < 1000 nM
CC(C)COc1ccc(Cl)cc1Cc1nc(-c2nc3ccc(CCN4CCN(C)CC4)cc3[nH]2)cs1    < 1000 nM
CN(C)c1ccc2nc(-c3csc(Cc4cc(Cl)ccc4OCc4ccccc4)n3)[nH]c2n1 [Example 152, hydrochloride]    < 1000 nM
CN1CCN(c2ccc3nc(-c4csc(Cc5cc(Cl)ccc5OCc5ccccc5)n4)[nH]c3c2)CC1 [Example 148, hydrochloride]    < 1000 nM
CC(C)C(=O)Nc1csc(Cc2cc(Cl)ccc2OCc2ccccc2)n1    < 1000 nM

The compound O=C(Nc1nnn[nH]1)c1csc(Cc2cc(Cl)ccc2OCc2ccccc2)n1 showed Ki equal to ≤ 31.6 nM

Per the record, CC(C)COc1ccc(Cl)cc1Nc1nc(-c2nc3ccc(CN4CCCCC4)cc3[nH]2)cs1 has Ki of > 1000 nM

Value of measured Ki for the entry CC(C)COc1ccc(Cl)cc1Cc1nc(-c2nc3cc(F)c(F)cc3[nH]2)cs1 : < 1000 nM

Record summary for O=C(O)Cc1coc(-c2cc(Cl)ccc2OCc2c(F)cc(F)cc2F)n1 : reported Ki = > 1000 nM

Note to self: Ki recorded for CC(C)COc1ccc(Cl)cc1Nc1nc(-c2nc3ccc(N4CCN(C)CC4)cc3[nH]2)cs1 was > 1000 nM

Data point: Clc1ccc(OCc2ccccc2)c(Cc2nc(-c3nc4cc5cn[nH]c5cc4[nH]3)cs2)c1 ; Ki = < 1000 nM

The value of Ki measured for the compound CC(C)COc1ccc(Cl)cc1Cc1nc(-c2nc3ncccc3[nH]2)cs1 turned out to be < 1000 nM

---

- SUBJECT OF TEST: EP1 receptors (Homo sapiens)
- Sequence (P34995 1-402): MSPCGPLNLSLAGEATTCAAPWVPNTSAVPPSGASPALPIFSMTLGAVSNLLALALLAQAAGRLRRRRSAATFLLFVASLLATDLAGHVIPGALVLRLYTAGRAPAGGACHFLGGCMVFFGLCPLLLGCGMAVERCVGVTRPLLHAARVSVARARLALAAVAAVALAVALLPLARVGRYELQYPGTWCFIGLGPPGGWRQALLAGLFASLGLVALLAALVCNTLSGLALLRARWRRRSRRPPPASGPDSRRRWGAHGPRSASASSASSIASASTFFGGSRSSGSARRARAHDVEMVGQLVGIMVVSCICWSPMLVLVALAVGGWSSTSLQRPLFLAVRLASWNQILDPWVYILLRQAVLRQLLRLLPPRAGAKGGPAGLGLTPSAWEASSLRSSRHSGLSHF
- EXPERIMENTAL PROTOCOL: Binding assay for the human prostanoid EP1 receptor (competition with [3H]-PGE2)
- Design: expressed in transfected cells; host or cells: CHO-K1 cells, membrane fraction
- EXPERIMENTAL CONDITIONS: [3H]-PGE2 competition; averages of a number of experiments; read-out: pIC50 value, binding assay for the human prostanoid EP1 receptor (converted)
Counter-ions that a name gives are not always drawn.
Some molecules, each annotated with its measured IC50.

NC(=O)c1csc(Cc2cc(Cl)ccc2OCc2ccccc2)n1    ≤ 1 µM
O=C(O)c1csc(Cc2cc(C(F)(F)F)ccc2OCc2ccc(Cl)cc2F)n1    ≤ 0.0316 µM
O=C(O)c1csc(Cc2cc(Cl)ccc2OCc2c(F)cc(F)cc2F)n1    ≤ 0.0316 µM
CC(C)COc1ccc(Cl)cc1Nc1nc(-c2nc3ccc(CN4CCN(C)CC4)cc3[nH]2)cs1    ≤ 0.0316 µM
Clc1ccc(OCc2ccccc2)c(Cc2nc(-c3nc4ccc(N5CCCC5)nc4[nH]3)cs2)c1    ≤ 1 µM

Entry OCc1cccc2nc(-c3csc(Cc4cc(Cl)ccc4OCc4ccccc4)n3)[nH]c12 [Example 143, hydrochloride] ; IC50 = ≤ 1 µM

// IC50 lookup, molecule = O=C(O)Cc1csc(-c2cc(Cl)ccc2OCc2ccccc2F)n1 , result: ≤ 1 µM

Please fill in: IC50 reported for CC(C)COc1ccc(Cl)cc1Cc1nc(-c2nc3ccc(CCN4CCCC4)cc3[nH]2)co1 = ≤ 0.0316 µM

Noted for O=C(NCc1cccnc1)c1csc(Cc2cc(Cl)ccc2OCc2ccccc2)n1 : its IC50 reads ≤ 1 µM

---

- SUBJECT OF TEST: EP1 receptors (Homo sapiens)
- EXPERIMENTAL PROTOCOL: Binding assay for the human prostanoid EP1 receptor (competition with [3H]-PGE2)
- Parameters: expressed in transfected cells; host or cells: CHO-K1 cells, membrane fraction
- EXPERIMENTAL CONDITIONS: [3H]-PGE2 competition; averages of a number of experiments; read-out: pIC50 value, binding assay for the human prostanoid EP1 receptor (converted)
Attribute: IC50

# count of solved cases: 3
O=C(O)c1csc(Cc2cc(Cl)ccc2OCc2ccccc2F)n1    ≤ 31.6 nM
O=C(Nc1ccccn1)c1csc(Cc2cc(Cl)ccc2OCc2ccccc2)n1    ≤ 1000 nM
O=C(O)Cc1csc(-c2cc(Cl)ccc2OCc2cc(F)c(F)cc2F)n1    ≤ 1000 nM

compound CN1CCN(Cc2ccc(C(=O)Nc3csc(Cc4cc(Cl)ccc4OCc4ccccc4)n3)cc2)CC1 , IC50 observed: ≤ 1000 nM

Noted for Clc1ccc(OCc2ccccc2)c(Cc2nc(-c3nc4ncccc4[nH]3)cs2)c1 : its IC50 reads ≤ 1000 nM

---

Each entry below lists one item and its recorded Ki value.
- SUBJECT OF TEST: EP1 receptors (Homo sapiens, UniProt P34995)
- EXPERIMENTAL PROTOCOL: human EP1 calcium mobilisation assay (CHO-K1 cells, FLIPR, PGE2)
- Type: cell-based
- Design: expressed in transfected cells; host or cells: CHO-K1 cells, pCIN vector
- EXPERIMENTAL CONDITIONS: free bases or sodium salts; averages of a number of experiments; read-out: functional pKi value, human EP1 calcium mobilisation assay (converted)
Where a name gives a salt, the structure may show the parent alone.

// solved cases for Ki follow
O=C(O)Cc1coc(-c2cc(Cl)ccc2OCc2ccc(F)cc2Cl)n1 [Example 81]    > 1000 nM
O=C(NS(=O)(=O)c1ccccc1)c1csc(Cc2cc(Cl)ccc2OCc2ccccc2Cl)n1 [Example 104]    < 1000 nM
CC(C)COc1ccc(Cl)cc1Cc1nc(-c2nc3nccnc3[nH]2)cs1 [Example 136]    ≤ 31.6 nM
CC(C)COc1ccc(Cl)cc1Cc1nc(NC(=O)OC(C)(C)C)cs1 [Example 111]    < 1000 nM
O=C(NS(=O)(=O)c1ccccc1)c1csc(Cc2cc(Cl)ccc2OCc2ccc(F)cc2)n1 [Example 101]    < 1000 nM

// recorded Ki for Clc1ccc(OCc2ccccc2)c(Cc2nc(-c3nc4ccc(CN5CCCCC5)cc4[nH]3)co2)c1 [Example 172] : < 1000 nM

Documented Ki of CNCc1ccc2nc(-c3csc(Nc4cc(Cl)ccc4OCC(C)C)n3)[nH]c2c1 [Example 179, hydrochloride] : > 1000 nM

So for CC(C)COc1ccc(Cl)cc1Cc1nc(-c2nc3ccc(CN(C)C)cc3[nH]2)cs1 [Example 124] , the logged Ki turned out to be < 1000 nM

Recorded result, Clc1ccc(OCc2ccccc2)c(Cc2nc(-c3nc4ncccc4[nH]3)cs2)c1 [Example 133] , Ki: < 1000 nM

Lab note: measured Ki of CC(C)COc1ccc(Cl)cc1Nc1nc(-c2nc3ccc(CN4CCN(C)CC4)cc3[nH]2)cs1 [Example 183] was < 1000 nM

Looking up CC(C)CNC(=O)c1csc(Cc2cc(Cl)ccc2OCc2ccccc2)n1 [Example 93] , I found its Ki recorded as > 1000 nM
